Target: CYP2D6 (Homo sapiens)
Sequence (P10635 whole entry): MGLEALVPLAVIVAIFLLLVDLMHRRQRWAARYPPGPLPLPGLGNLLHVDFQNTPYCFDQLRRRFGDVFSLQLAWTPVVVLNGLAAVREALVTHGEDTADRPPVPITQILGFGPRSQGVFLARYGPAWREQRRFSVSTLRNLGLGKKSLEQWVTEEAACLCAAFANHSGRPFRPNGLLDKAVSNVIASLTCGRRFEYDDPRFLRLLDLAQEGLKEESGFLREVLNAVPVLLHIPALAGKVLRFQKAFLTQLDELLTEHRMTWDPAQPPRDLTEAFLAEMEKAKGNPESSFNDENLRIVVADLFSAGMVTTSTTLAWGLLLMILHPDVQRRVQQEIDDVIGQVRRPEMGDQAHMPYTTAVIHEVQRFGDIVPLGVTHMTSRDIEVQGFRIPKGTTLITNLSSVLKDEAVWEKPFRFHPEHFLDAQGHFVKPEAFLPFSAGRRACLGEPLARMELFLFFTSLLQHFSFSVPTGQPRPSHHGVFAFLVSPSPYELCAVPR
Assay: Inhibition of CYP2D6 in human liver microsomes at 10 uM preincubated for 10 mins followed by NADPH cofactor addition and measured after 10 mins by LC-MS/MS analysis
Format: ADME, Microsome
Settings: time 20 min
OUTCOME MEASURE: inhibition at 10 min, 10 µM (%)
Report only the number, with the unit % understood.

Entry under review: Nc1ccc(Sc2ccnc(Nc3ccc(NC4CCOCC4)cc3)n2)cc1 . Reported inhibition at 10 min, 10 µM?
8

====

Assay: Metabolic stability in human plasma assessed as parent compound remaining and measured after 60 mins by LC-MS/MS analysis
Type: ADME, cell-free
Details: read-out: Stability
OUTCOME MEASURE: remaining at 1 h (%)
Report only the number, with the unit % understood.

Entry under review: Nc1ccc(Sc2ccnc(Nc3ccc(NC4CCOCC4)cc3)n2)cc1 . Reported remaining at 1 h?
107
